Biological target: SARS-CoV-2 "Beta" SA B.1.351 full-length Spike protein on pseudovirus (SARS-CoV-2, UniProt P0DTC2 14-1273)
Experiment: cell-based or functional assay
recorded-endpoint: Pseudovirus Neturalization

Ask: Read the entry AB-009271 (antibody, V domains shown) VH: EVQLVESGGGLIQPGGSLRLSCAASGFIVSSNYMSWVRQAPGKGLEWVSVIYSGGSTYYADSVKGRFTISRDNSKNTLYLQMNSLRAEDTAVYYCARDYGDFYFDYWGQGTLVTVSS VL: EIVMTQSPATLSVSPGERATLSCRASQSVSSNLAWYQQKPGQAPRLLIYGASTRATGIPARFSGSGSGTEFTLTISSLQSEDFAVYYCQQYYNWPRTFGQGTKVEIK and write its reported Pseudovirus Neturalization.
Result: > 50 µg/mL

Ask: Read the entry AB-009734 (antibody, V domains shown) VH: QVHLVQSGAEVKTPGASVRVSCKASGYTFTSHYMHWVRQAPGQGLEWMGLINPSGSGTAYPQHFQGRVTMTRDTSTTTDYMDLSSLRSEDTAMYFCARMERSGAFDLWGQGTMVTVSS VL: EIVLTQSPGTLSLSPGERATLSCRASQTISSRYLAWYYQKPGQAPRLLIQGSSIRATGIPDRFSGSGSGTDFTLTISRLEPEDFAVYYCQHYGSSPPMYTFGQGTKLEIK and write its reported Pseudovirus Neturalization.
Result: > 50 µg/mL

Ask: Read the entry AB-009281 (antibody, V domains shown) VH: EVQLVETGGGLIQPGGSLRLSCAASGFTVSSNYMSWVRQAPGKGLEWVSVIYSGGSTYYADSVKGRFTISRDNSKNTLYLQMNSLRAEDTAVYYCARDLYYYGMDVWGQGTTVTVSS VL: DIQLTQSPSFLSASVGDRVTITCRASQGISSYLAWYQQKPGKAPKLLIYAASTLQSGVPSRFSGSGSGTEFTLTISSLQPEDFATYYCQQLNSYPTFGQGTKVEIK and write its reported Pseudovirus Neturalization.
Result: > 50 µg/mL

Ask: Read the entry AB-009620 (antibody, V domains shown) VH: QITLKESGPTLVKPTQTLTLTCTFSGFSLSTSGVGVGWIRQPPGKALEWLALIYWDDDKRYSPSLKSRLTITKDTSKNQVVLTMTNMDPVDTATYYCAHHEVATVFDYWGQGTLVTVSS VL: QSALTQPASVSGSPGQSITISCTGTSSDVGAYNYVSWYQQHPGKAPKLMIYEVSNRPSGVSNRFSGSKSGNTASLTISGLQAEDEADYYCSSYTSSSTVFGGGTKLTVL and write its reported Pseudovirus Neturalization.
Result: 0.563 µg/mL
